# test-system: SARS-COV-2 Spike protein receptor binding domain (amino acids Arg319-Phe541) expressed with the Fc p (SARS-CoV-2)
measured-attribute: pIC50
Kindly note that pIC50 refers to -log10 of the concentration in mol/L and answer with the value alone.

binder | pIC50
mAb10984 (antibody, V domains shown) VH: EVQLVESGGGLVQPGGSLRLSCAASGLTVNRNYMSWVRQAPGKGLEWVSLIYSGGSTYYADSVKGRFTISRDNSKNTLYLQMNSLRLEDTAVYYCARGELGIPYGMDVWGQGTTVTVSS VL: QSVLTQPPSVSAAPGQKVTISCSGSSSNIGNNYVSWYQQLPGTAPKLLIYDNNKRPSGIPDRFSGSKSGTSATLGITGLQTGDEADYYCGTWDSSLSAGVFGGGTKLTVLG | 10.11
mAb10967 (antibody, V domains shown) VH: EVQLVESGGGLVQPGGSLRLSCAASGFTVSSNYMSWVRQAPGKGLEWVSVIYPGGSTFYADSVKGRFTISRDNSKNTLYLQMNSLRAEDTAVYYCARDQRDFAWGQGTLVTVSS VL: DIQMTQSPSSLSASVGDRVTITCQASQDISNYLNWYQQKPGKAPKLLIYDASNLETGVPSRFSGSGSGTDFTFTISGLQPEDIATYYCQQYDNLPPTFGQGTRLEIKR | 9.55
mAb10986 (antibody, V domains shown) VH: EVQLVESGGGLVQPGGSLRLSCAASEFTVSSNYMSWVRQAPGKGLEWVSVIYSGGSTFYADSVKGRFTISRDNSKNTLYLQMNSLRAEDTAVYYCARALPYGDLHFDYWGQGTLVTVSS VL: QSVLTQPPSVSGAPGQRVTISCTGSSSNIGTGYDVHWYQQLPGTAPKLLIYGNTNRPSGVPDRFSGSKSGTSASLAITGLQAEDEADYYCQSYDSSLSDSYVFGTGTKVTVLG | 10.12
mAb10913 (antibody, V domains shown) VH: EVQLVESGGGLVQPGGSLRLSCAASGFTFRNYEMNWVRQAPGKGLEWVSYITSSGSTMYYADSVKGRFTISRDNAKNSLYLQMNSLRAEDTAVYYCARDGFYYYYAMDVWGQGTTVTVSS VL: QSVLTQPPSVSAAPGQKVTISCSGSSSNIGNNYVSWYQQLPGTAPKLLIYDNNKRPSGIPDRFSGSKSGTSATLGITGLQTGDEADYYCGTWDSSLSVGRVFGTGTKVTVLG | 9.66

binder mAb10938 (antibody, V domains shown) VH: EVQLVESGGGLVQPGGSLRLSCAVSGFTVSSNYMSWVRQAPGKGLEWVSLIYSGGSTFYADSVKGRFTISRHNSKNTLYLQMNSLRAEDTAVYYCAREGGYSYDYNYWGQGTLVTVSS VL: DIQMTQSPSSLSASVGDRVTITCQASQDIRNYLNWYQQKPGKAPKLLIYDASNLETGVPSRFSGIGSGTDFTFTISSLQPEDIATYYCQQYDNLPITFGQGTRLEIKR , pIC50 observed: 9.56

Noted for mAb10957 (antibody, V domains shown) VH: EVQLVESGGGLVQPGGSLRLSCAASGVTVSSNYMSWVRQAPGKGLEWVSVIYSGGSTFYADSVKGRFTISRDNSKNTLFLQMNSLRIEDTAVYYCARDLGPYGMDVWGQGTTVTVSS VL: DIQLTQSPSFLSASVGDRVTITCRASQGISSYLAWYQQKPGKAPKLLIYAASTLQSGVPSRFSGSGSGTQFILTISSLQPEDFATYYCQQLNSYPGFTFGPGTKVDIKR : its pIC50 reads 9.77

Given item mAb11006 (antibody, V domains shown) VH: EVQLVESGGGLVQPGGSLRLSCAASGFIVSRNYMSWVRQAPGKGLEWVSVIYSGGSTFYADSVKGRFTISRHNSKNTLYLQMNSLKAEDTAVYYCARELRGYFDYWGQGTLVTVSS VL: DIQLTQSPSFLSASVGDRVTITCWASQGISSYLAWYQQKPGKAPKLLIYAASTLQSGVPSRFSGSGSGTEFTLTISSLQPEDFATYYCQLLNSYPYTFGQGTKLEIKR , the value recorded as its pIC50 is 9.66
